assay: in vitro; conditions: dog
Param label: returns Fulfilled when CC50 < 400 µg/mL, returns Not fulfilled otherwise, including exact equality.

Examples with answers:
[
  {
    "compound": "O=c1cc(-c2ccccc2)oc2cc(O)ccc12 [7-Hydroxy flavone]",
    "qualitative label": "Not fulfilled"
  },
  {
    "compound": "C[C@@H]1O[C@@H](O[C@H]2[C@H](Oc3cc(O)c4c(c3)O[C@H](c3ccc(O)cc3)CC4=O)O[C@H](CO)[C@@H](O)[C@@H]2O)[C@H](O)[C@H](O)[C@H]1O",
    "qualitative label": "Not fulfilled"
  },
  {
    "compound": "O=C(O)/C=C/c1ccccc1O",
    "qualitative label": "Not fulfilled"
  }
]

Check if CC50 falls below 400 µg/mL for COc1cc(C=O)ccc1O . Fulfilled

For OC[C@H]1O[C@@H](Oc2ccc(O)cc2)[C@H](O)[C@@H](O)[C@@H]1O , is the recorded CC50 below the cut-off of 400 µg/mL? Not fulfilled

Is the reported CC50 for Cc1cc(O)c2c(c1)C(=O)c1cccc(O)c1C2=O strictly below 400 µg/mL? Fulfilled

Report whether reported CC50 is lower than 400 µg/mL (strictly) for C[C@@H]1CC[C@@]2(OC1)O[C@H]1[C@@H](O)[C@H]3[C@@H]4CC[C@H]5C[C@@H](O[C@@H]6O[C@H](CO)[C@H](O[C@@H]7O[C@H](CO)[C@@H](O)[C@H](O[C@@H]8OC[C@@H](O)[C@H](O)[C@H]8O)[C@H]7O[C@@H]7O[C@H](CO)[C@H](O)[C@H](O[C@@H]8O[C@H](CO)[C@@H](O)[C@H](O)[C@H]8O)[C@H]7O)[C@H](O)[C@H]6O)[C@H](O)C[C@]5(C)[C@H]4CC[C@]3(C)[C@H]1[C@@H]2C Not fulfilled

These entries and their values trace back to paper PMC9964242.
